Reference source: ChEMBL document CHEMBL2401735

# Experiment: Cytotoxicity against human Hep2 cells assessed as cell survival fraction at 50 ug/ml after 24 hrs by trypan blue exclusion assay (reference value: 97 to 98%)
# Assay type: cell-based
# Test settings: HEp-2 cells, read-out: Survival
Measured metric: viability at 24 h, 50 ug/ml (%)
Response body: numeric value in %, unit text excluded.

## Task Which value of viability at 24 h, 50 ug/ml has been reported for C/C(=N\Nc1nc(-c2ccc(Cl)cc2Cl)cs1)C1CCCCC1 in the records?
## Result 0

## Task And what about the compound CCCC/C(CC)=N/Nc1nc(-c2ccc(OC)cc2)cs1 ?
## Result 0

## Task And what about the compound CCC(CC)=NNc1nc(-c2ccc(C)cc2)cs1 ?
## Result 67

## Task And what about the compound C=CCC/C(C)=N/Nc1nc(-c2ccc(OC)cc2)cs1 ?
## Result 0

## Task And what about the compound CC/C(C)=N/Nc1nc(-c2ccc(OC)cc2)cs1 ?
## Result 0

## Task And what about the compound CCC/C(C)=N/Nc1nc(-c2ccc(OC)cc2)cs1 ?
## Result 0

## Task And what about the compound Clc1ccc(-c2csc(NN=C3CCCCCCC3)n2)c(Cl)c1 ?
## Result 0

## Task And what about the compound Clc1ccccc1C(c1ccccc1)(c1ccccc1)n1ccnc1 ?
## Result 0

## Task And what about the compound CCC/C(C)=N/Nc1nc(-c2ccc(C)cc2)cs1 ?
## Result 72.8
